Target: UGT1A1 (Homo sapiens)
Construct: purchased BD Gentest Corp. (Woburn, MA, USA); host or cells: baculovirus-infected insect cells
Sequence (P22309 26-533): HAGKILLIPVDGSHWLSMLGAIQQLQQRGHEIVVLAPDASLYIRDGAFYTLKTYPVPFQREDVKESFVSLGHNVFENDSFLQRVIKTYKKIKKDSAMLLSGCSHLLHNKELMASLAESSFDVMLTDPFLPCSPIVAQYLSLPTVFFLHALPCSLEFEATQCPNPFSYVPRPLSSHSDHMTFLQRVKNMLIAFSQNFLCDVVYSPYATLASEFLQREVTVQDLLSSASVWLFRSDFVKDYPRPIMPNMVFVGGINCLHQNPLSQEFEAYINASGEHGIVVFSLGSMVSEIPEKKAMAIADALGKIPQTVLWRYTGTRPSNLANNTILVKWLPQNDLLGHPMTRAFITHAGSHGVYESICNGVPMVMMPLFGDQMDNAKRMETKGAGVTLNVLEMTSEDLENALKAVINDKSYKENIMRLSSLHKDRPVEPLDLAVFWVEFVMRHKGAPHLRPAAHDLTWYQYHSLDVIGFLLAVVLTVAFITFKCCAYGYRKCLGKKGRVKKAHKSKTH
Assay: Inhibition of recombinant UGT-catalyzed 4-MU glucuronidation
Assay type: biochemical
Settings: pH 7.4, probe 4-methylumbelliferone (4-MU), 110 μM, 100 μM compound, 4-MU probe substrate, negative = activation
metric.name: inhibition at 120 min, 100 µM (%)

[a] O=c1c2cc(O)c(O)cc2oc2cc(O)c([C@@H]3O[C@H](CO)[C@@H](O)[C@H](O)[C@H]3O)c(O)c12
[b] O=c1c2cc(O)c(O)cc2oc2cc(O)cc(O)c12 [NTR, 1,3,6,7-tetrahydroxyxanthone]
From the items above, decide which of a and b has the lower inhibition at 120 min, 100 µM reading. Give the label of your selection.
a

* * *

Target: UniProtKB O60656
Sequence (O60656 26-530): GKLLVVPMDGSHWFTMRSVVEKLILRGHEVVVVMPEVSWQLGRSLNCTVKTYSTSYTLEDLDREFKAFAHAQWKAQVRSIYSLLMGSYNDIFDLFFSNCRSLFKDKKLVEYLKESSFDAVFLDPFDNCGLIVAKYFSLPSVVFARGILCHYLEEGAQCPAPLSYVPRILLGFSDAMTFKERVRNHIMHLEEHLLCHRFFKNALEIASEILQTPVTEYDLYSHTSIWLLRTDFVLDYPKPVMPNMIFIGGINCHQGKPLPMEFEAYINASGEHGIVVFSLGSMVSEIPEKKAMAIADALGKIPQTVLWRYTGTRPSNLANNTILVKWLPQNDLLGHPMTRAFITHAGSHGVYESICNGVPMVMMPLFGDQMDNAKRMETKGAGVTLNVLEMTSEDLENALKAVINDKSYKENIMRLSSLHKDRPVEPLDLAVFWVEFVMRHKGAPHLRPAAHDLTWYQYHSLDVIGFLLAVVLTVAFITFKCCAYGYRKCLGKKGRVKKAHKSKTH
Experiment: Inhibition of recombinant UGT-catalyzed 4-MU glucuronidation
Conditions: second plot of Lineweaver-Burk slopes; read-out: inhibition constant (Ki) towards UGT1A9
metric.name: Ki (nM)
Write the number in nM without appending the unit.

// Ki lookup, molecule = O=c1c2cc(O)c(O)cc2oc2cc(O)cc(O)c12 [NTR, 1,3,6,7-tetrahydroxyxanthone] , result: 2800

* * *

Target: UGT1A3 (Homo sapiens)
Sequence (P35503 29-534): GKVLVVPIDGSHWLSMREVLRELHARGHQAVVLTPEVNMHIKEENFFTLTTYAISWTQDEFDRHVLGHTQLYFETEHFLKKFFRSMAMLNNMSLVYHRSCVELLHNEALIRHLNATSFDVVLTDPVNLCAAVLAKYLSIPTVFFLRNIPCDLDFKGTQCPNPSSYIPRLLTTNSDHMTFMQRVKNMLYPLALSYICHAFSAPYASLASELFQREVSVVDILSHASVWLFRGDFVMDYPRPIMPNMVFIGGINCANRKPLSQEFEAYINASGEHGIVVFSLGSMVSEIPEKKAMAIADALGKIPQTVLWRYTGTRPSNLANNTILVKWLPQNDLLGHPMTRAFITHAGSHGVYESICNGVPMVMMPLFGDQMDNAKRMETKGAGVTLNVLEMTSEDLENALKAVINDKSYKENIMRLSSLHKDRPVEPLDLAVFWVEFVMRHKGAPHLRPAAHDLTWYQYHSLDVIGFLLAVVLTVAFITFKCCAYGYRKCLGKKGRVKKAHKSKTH
Assay: Inhibition of recombinant UGT-catalyzed 4-MU glucuronidation
Details: second plot of Lineweaver-Burk slopes; read-out: inhibition constant (Ki) towards UGT1A3
metric.name: pKi
Reminder that pKi means the negative base-10 logarithm of the concentration expressed in mol/L.

// pKi lookup, molecule = O=c1c2cc(O)c(O)cc2oc2cc(O)cc(O)c12 [NTR, 1,3,6,7-tetrahydroxyxanthone] , result: 5.80

* * *

Biological target: UGT1A3 (Homo sapiens)
Assay: Inhibition of recombinant UGT-catalyzed 4-MU glucuronidation
Details: 4-MU glucuronidation; Probit analysis; read-out: IC50 towards UGT1A3
metric.name: IC50 (µM)
Write the number in µM without appending the unit.

// IC50 lookup, molecule = O=c1c2cc(O)c(O)cc2oc2cc(O)cc(O)c12 [NTR, 1,3,6,7-tetrahydroxyxanthone] , result: 8.2

* * *

Molecular target: UGT1A9 (Homo sapiens)
Construct: purchased BD Gentest Corp. (Woburn, MA, USA); host or cells: baculovirus-infected insect cells
Assay: Inhibition of recombinant UGT-catalyzed 4-MU glucuronidation
Assay type: biochemical
Settings: human, pH 7.4, probe 4-methylumbelliferone (4-MU), 30 μM; 100 μM compound; 4-MU probe substrate; negative = activation
metric.name: inhibition at 30 min, 100 µM (%)

[a] O=c1c2cc(O)c(O)cc2oc2cc(O)cc(O)c12 [NTR, 1,3,6,7-tetrahydroxyxanthone]
[b] O=c1c2cc(O)c(O)cc2oc2cc(O)c([C@@H]3O[C@H](CO)[C@@H](O)[C@H](O)[C@H]3O)c(O)c12
From the items above, decide which of a and b has the lower inhibition at 30 min, 100 µM reading. Give the label of your selection.
b
